- Assay System: Son of Sevenless (SOS) (Homo sapiens, UniProt Q07889)
- Sequence (Q07889 564-1049 limits assumed): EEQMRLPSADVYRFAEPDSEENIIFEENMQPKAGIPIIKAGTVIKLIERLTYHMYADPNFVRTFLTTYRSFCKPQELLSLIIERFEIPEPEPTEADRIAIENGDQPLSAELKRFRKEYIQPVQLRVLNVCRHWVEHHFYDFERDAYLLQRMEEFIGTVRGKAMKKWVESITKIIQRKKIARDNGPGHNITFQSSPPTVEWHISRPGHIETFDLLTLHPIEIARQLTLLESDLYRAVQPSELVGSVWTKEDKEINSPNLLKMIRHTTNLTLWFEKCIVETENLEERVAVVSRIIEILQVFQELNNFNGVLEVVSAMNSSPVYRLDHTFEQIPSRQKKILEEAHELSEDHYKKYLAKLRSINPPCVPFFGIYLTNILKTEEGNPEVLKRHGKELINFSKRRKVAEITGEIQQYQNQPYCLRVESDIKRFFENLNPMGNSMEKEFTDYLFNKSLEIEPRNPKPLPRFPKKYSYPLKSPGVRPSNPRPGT
pKi: −log10 of the molar value. Structures can show the parent of a compound that is named as a salt.
Property Name: pKi

Compound | Assay System | Property Name | Measurement
Cc1cc2nc(NCCN)n(Cc3ccc(F)c(Cl)c3)c2cc1C [Example 17, trifluoroacetate] | Son of Sevenless (SOS) (Homo sapiens, UniProt Q07889) | pKi | 5.30 to 6.00
Cc1cc(OCCNCCO)c2nc(N3CCNCC3)n(Cc3cc(C)c(F)c(C)c3)c2c1 | Son of Sevenless (SOS) (Homo sapiens, UniProt Q07889) | pKi | 6.00 to 6.30
Cc1cc2c(nc(N3CCNCC3)n2Cc2ccc(F)c(Cl)c2)c(-c2ccc(CN)cc2)c1C [Example 108, trifluoroacetate] | Son of Sevenless (SOS) (Homo sapiens, UniProt Q07889) | pKi | 6.00 to 6.30
Cc1cc(CN(C)C)c2ncn(Cc3ccc(F)c(Cl)c3)c2c1 [Example 145, trifluoroacetate] | Son of Sevenless (SOS) (Homo sapiens, UniProt Q07889) | pKi | < 5.30
Cc1cc2nc(NCCN)n(Cc3ccc(F)c(Cl)c3)c2cc1Br [Example 64, trifluoroacetate] | Son of Sevenless (SOS) (Homo sapiens, UniProt Q07889) | pKi | 6.00 to 6.30
Clc1ccc(Cn2c(N3CCNCC3)nc3ncccc32)cc1 | Son of Sevenless (SOS) (Homo sapiens, UniProt Q07889) | pKi | < 5.30
Cc1cc2nc(S(=O)(=O)CCN)n(Cc3ccc(F)c(Cl)c3)c2cc1C [Example 211, trifluoroacetate] | Son of Sevenless (SOS) (Homo sapiens, UniProt Q07889) | pKi | < 5.30
Cc1cc(N2CCN(C(C)C)CC2)c2nc(N3CCNCC3)n(Cc3cc(C)c(F)c(C)c3)c2c1 [Example 194, trifluoroacetate] | Son of Sevenless (SOS) (Homo sapiens, UniProt Q07889) | pKi | 6.00 to 6.30
Fc1ccc(Cn2c(N3CCNCC3)nc3c(-c4cccnc4OCc4ccccc4)cccc32)cc1Cl | Son of Sevenless (SOS) (Homo sapiens, UniProt Q07889) | pKi | < 5.30

---

The entries below are paired with their reported EC50.
- Assay System: UniProt Q07889
- Experiment Summary: SOS-mediated nucleotide exchange on Ras (BODIPY-GDP fluorescence)
- Conditions Used: SOS-mediated exchange of BODIPY-GDP for GTP on Ras
Where a name gives a salt, the structure may show the parent alone.

Compound | EC50
Cc1cc(OC2CCNC2)c2nc(N3CCNCC3)n(Cc3cc(C)c(F)c(C)c3)c2c1 (centres unmarked) [Example 317] | < 1 µM
Cc1cnc2ncn(Cc3ccc(F)c(Cl)c3)c2c1 | 30 to 100 µM
Cc1cc(Cn2c(N3CCNCC3)nc3c(-c4ccc(CN)cc4)cc(Cl)cc32)cc(C)c1F [Example 122, trifluoroacetate] | 1 to 5 µM
CCNCc1c(C)c(C)cc2c1nc(NCCN)n2Cc1ccc(F)c(Cl)c1 [Example 147, trifluoroacetate] | < 1 µM
Clc1ccc(Cn2c(Cl)nc3ncccc32)cc1 | 30 to 100 µM
Cc1cc2c(nc(N3CCNCC3)n2Cc2cc(C)c(F)c(C)c2)c(CO)c1C [Example 138, trifluoroacetate] | 1 to 5 µM
Cc1cc2nc(N)n(Cc3cc(F)cc(F)c3)c2cc1C | 30 to 100 µM
Cc1ccc2nc([C@@H](N)Cc3ccc(O)cc3)n(Cc3ccc(F)cc3)c2c1 | 30 to 100 µM
CCCN1CC[C@@H](C(=O)c2ccccc2)C1c1cc(Cl)cc2c1nc(N1CCNCC1)n2Cc1cc(C)c(F)c(C)c1 (stereo in doubt) [Example 149, trifluoroacetate] | 5 to 30 µM
Cc1cc2nc(N3CCC(N)C3)n(Cc3ccc(F)c(Cl)c3)c2cc1C (centres unmarked) | 1 to 5 µM
Cc1cc2c(nc(N3CCNCC3)n2Cc2ccc(F)c(C)c2)c(CNCCC(C)C)n1 | 5 to 30 µM
Cc1cc2c(cc1Br)nc(N1CCNCC1)n2Cc1ccc(F)c(Cl)c1 [Example 70, trifluoroacetate] | 1 to 5 µM
Cn1nccc1-c1cccc2c1nc(N1CCNCC1)n2Cc1ccc(F)c(Cl)c1 [Example 86, trifluoroacetate] | 1 to 5 µM
Cc1cc2c(nc(N3CCNCC3)n2Cc2ccc(F)c(Cl)c2)c(-c2ccc(CN)cc2)c1C [Example 108, trifluoroacetate] | < 1 µM
CNCCN(C)c1cc(C)cc2c1nc(N1CCNCC1)n2Cc1cc(C)c(F)c(C)c1 [Example 192, trifluoroacetate] | 1 to 5 µM
Cc1cc(-c2ccccc2Cl)c2nc(N3CCNCC3)n(Cc3cc(C)c(F)c(C)c3)c2c1 | < 1 µM
Cc1cc(Cn2c(NCCN)nc3c(C4=CCNCC4)cc(Cl)cc32)cc(C)c1F | < 1 µM
Cc1cc(Cn2c(N3CCNCC3)nc3c(C4NCCc5c4[nH]c4ccccc54)cc(Cl)cc32)cc(C)c1F (centres unmarked) [Example 140, trifluoroacetate] | 1 to 5 µM
Cc1cc2c(nc(N3CCNCC3)n2Cc2ccc(F)c(C)c2)c(CN2CCCCC2)n1 | 30 to 100 µM
CCCN1CC[C@@H](C(=O)c2ccccc2)C1c1cc(Cl)cc2c1nc(N1CCNCC1)n2Cc1ccc(F)c(Cl)c1 (stereo in doubt) [Example 154, trifluoroacetate] | 1 to 5 µM
Cc1cc(Cn2c(NCC3CNC3)nc3c(-c4ccccc4Cl)cc(Cl)cc32)cc(C)c1F | < 1 µM
Cc1cc2nc(N3CCCC(N)C3)n(Cc3ccc(F)c(Cl)c3)c2cc1C (centres unmarked) | 1 to 5 µM
Cc1cc2c(cc1C)N(Cc1ccc(F)c(Cl)c1)C1=NCCCN12 | 1 to 5 µM
